system: NCI-H841 complex tumor spheroid viability; test: Anticancer human tumor NCI-H841 cell line growth inhibition; settings: second compound 0.003 µM; first compound 0.1 µM; active compounds read low;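 further: spheroids exposed to compounds for 7 days before readout; 100% = DMSO vehicle control wells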
Would you mind telling me the reported viability, T/C of each entry?
Your answer should be a plain number; it is taken to be in %.

So what's the measured viability, T/C for this one? COc1ccc([C@@H](O)c2cc(-c3ncnc4cc(N5CCOCC5)ccc34)c(F)cc2Cl)nn1 + CC[C@@]1(O)C(=O)OCc2c1cc1n(c2=O)Cc2cc3c(CN(C)C)c(O)ccc3nc2-1
95.9

Given COc1ccc([C@@H](O)c2cc(-c3ncnc4cc(N5CCOCC5)ccc34)c(F)cc2Cl)nn1 + COc1cc2c(cc1O)CCNC21CSC2c3c(OC(C)=O)c(C)c4c(c3C(COC1=O)N1C(O)C3Cc5cc(C)c(OC)c(O)c5C(C21)N3C)OCO4 , state its recorded viability, T/C.
0.12

# viability, T/C lookup, item CC1COCCN1c1cc(-c2ccnn2C)c2ccnc(-c3ccn[nH]3)c2n1 (configuration not stated) + COc1cc2c(cc1O)CCNC21CSC2c3c(OC(C)=O)c(C)c4c(c3C(COC1=O)N1C(O)C3Cc5cc(C)c(OC)c(O)c5C(C21)N3C)OCO4
0.12

What viability, T/C value was documented for this compound, CC1COCCN1c1cc(-c2ccnn2C)c2ccnc(-c3ccn[nH]3)c2n1 (configuration not stated) + CC[C@@]1(O)C(=O)OCc2c1cc1n(c2=O)Cc2cc3c(CN(C)C)c(O)ccc3nc2-1 ?
2.38

Quick one: viability, T/C for Cc1cc(C)c(CNC(=O)c2cc(-c3ccc(CN4CCOCC4)cc3)cc3c2cnn3C2CCCC2)c(=O)[nH]1 + COc1cc2c(cc1O)CCNC21CSC2c3c(OC(C)=O)c(C)c4c(c3C(COC1=O)N1C(O)C3Cc5cc(C)c(OC)c(O)c5C(C21)N3C)OCO4 ?
0.12

Using the record for CC(C)n1c(=O)n(C)c2cnc3cc(F)c(-c4ccc(OCCCN5CCCCC5)nc4)cc3c21 + CC[C@@]1(O)C(=O)OCc2c1cc1n(c2=O)Cc2cc3c(CN(C)C)c(O)ccc3nc2-1 , report its viability, T/C.
51.3

Request the reported viability, T/C associated with [2H]c1nc(C)nc([2H])c1-c1cc(NC[C@@H](C)c2cccc3c(C(=O)NC)ccnc23)ncn1 + CC[C@@]1(O)C(=O)OCc2c1cc1n(c2=O)Cc2cc3c(CN(C)C)c(O)ccc3nc2-1
95.8

Look at this compound and give its reported viability, T/C. [2H]c1nc(C)nc([2H])c1-c1cc(NC[C@@H](C)c2cccc3c(C(=O)NC)ccnc23)ncn1 + COc1cc2c(cc1O)CCNC21CSC2c3c(OC(C)=O)c(C)c4c(c3C(COC1=O)N1C(O)C3Cc5cc(C)c(OC)c(O)c5C(C21)N3C)OCO4
0.1

May I ask what viability, T/C has been recorded for Cc1cc(C)c(CNC(=O)c2cc(-c3ccc(CN4CCOCC4)cc3)cc3c2cnn3C2CCCC2)c(=O)[nH]1 + CC[C@@]1(O)C(=O)OCc2c1cc1n(c2=O)Cc2cc3c(CN(C)C)c(O)ccc3nc2-1 ?
94.4

# lookup: viability, T/C of CC(C)n1c(=O)n(C)c2cnc3cc(F)c(-c4ccc(OCCCN5CCCCC5)nc4)cc3c21 + COc1cc2c(cc1O)CCNC21CSC2c3c(OC(C)=O)c(C)c4c(c3C(COC1=O)N1C(O)C3Cc5cc(C)c(OC)c(O)c5C(C21)N3C)OCO4
0.12

Please report the recorded viability, T/C for COc1cc(C)[nH]c(=O)c1CN1CCc2c(Cl)cc(C(OC)C3COC3)c(Cl)c2C1=O (configuration not stated) + COc1cc2c(cc1O)CCNC21CSC2c3c(OC(C)=O)c(C)c4c(c3C(COC1=O)N1C(O)C3Cc5cc(C)c(OC)c(O)c5C(C21)N3C)OCO4 .
0.09

Fill in the blank: the reported viability, T/C of COc1cc(C)[nH]c(=O)c1CN1CCc2c(Cl)cc(C(OC)C3COC3)c(Cl)c2C1=O (configuration not stated) + CC[C@@]1(O)C(=O)OCc2c1cc1n(c2=O)Cc2cc3c(CN(C)C)c(O)ccc3nc2-1 is ____.
72.1
